Test system: human apolipoprotein B mRNA
Experiment: Inhibition of human apolipoprotein B mRNA levels in HepG2 cells, quantitative real-time PCR
Assay type: cell-based
Details: HepG2 cells; human apolipoprotein B mRNA; oligonucleotides targeting genomic sequence SEQ ID NO 334; averages from two experiments
In the oligonucleotide strings, read from the 5' end, every base follows the letter of its sugar. An asterisk marks phosphorothioate; unmarked linkages are phosphodiester. Other units and linkages are bracketed, terminal groups are in braces. A string of capitals states the bases alone. e = 2'-O-(2-methoxyethyl) (MOE); [5mC] = 5-methylcytosine; d = 2'-deoxy (DNA)
% INHIB overview
Give the value, in units of %, as a plain number.

substance	scale unit	val
301175 (antisense eA*eG*e[5mC]*eA*eA*dA*dT*dT*dG*dG*dG*dA*dT*d[5mC]*dT*eG*eT*eG*e[5mC]*eT) [compound 301175]	%	29

[Q] Any idea what % INHIB was measured for 301113 (antisense eA*eG*eG*eT*eG*d[5mC]*dA*dA*dG*dA*dT*dG*dT*dT*d[5mC]*e[5mC]*eT*e[5mC]*eT*eG) [compound 301113] ?
[A] 46

[Q] Any idea what % INHIB was measured for 301066 (eG*eA*e[5mC]*e[5mC]*eT*d[5mC]*d[5mC]*d[5mC]*d[5mC]*dA*dG*d[5mC]*d[5mC]*dA*d[5mC]*eG*eT*eG*eG*eA; antisense) [compound 301066] ?
[A] 61
